System: HBV
Assay procedure: HBV inhibition assay in HepAD38 cells (extracellular HBV DNA by direct qPCR)
Type: cell-based, Hepatitis B virus
Condition notes: Hepatitis B virus, 1 μM, 96 hours, relative to non-treated reference, read-out: Anti HBV Activity (conc μM)
Reported metric: inhibition at 1 µM

Some solved entries appear below for comparison.
Query: What value of inhibition at 1 µM has been recorded for this entry: Cn1cc2c(c1C(=O)Nc1ccc(F)c(F)c1)OCC1CCN1S2(=O)=O (centres unmarked) [Example E3]
Response: > 50%

Query: What value of inhibition at 1 µM has been recorded for this entry: Cn1cc2c(c1C(=O)Nc1ccc(F)c(F)c1)NCC1CCCCN1S2(=O)=O (centres unmarked) [Example E2]
Response: < 50%

Query: What value of inhibition at 1 µM has been recorded for this entry: Cn1cc2c(c1C(=O)Nc1ccc(F)c(F)c1)OCC1CCCCN1S2(=O)=O (centres unmarked) [Example E1]
Response: < 50%

Others:
Query: What value of inhibition at 1 µM has been recorded for this entry: Cn1cc2c(c1C(=O)Nc1ccc(F)c(F)c1)OC[C@H]1C[C@H](C1)NS2(=O)=O [Example E5]
Response: < 50%

Query: What value of inhibition at 1 µM has been recorded for this entry: Cn1cc2c(c1C(=O)Nc1ccc(F)c(F)c1)OC1COCC1NS2(=O)=O (racemic) [Example E4]
Response: > 50%
